The reported measurements were obtained from patent US9775902B2.

Test system: erythropoietin (EPO)
Assay: EPO expression in Kelly neuroblastoma cells
Format: cell-based
Measured EPO Fold Increase, listed per entry.

molecule: O=C(O)CNC(=O)c1nc(Br)c2cc(Br)sc2c1O
EPO Fold Increase: 7.3
//
molecule: Cc1nc2ccc(Oc3ccc4c(O)c(C(=O)NCC(=O)O)nc(C)c4c3)cc2o1
EPO Fold Increase: 12.24
//
molecule: O=C(O)CNC(=O)c1nc(Sc2ccc(Cl)cc2)c2ccccc2c1O
EPO Fold Increase: 1.4
//
molecule: COc1cccc(Oc2cccc3c(O)c(C(=O)NCC(=O)O)nc(C#N)c23)c1
EPO Fold Increase: 1.44
//
molecule: CC(NC(=O)c1ncc2cc(Oc3ccccc3)ccc2c1O)C(=O)O (stereo not drawn)
EPO Fold Increase: 3.4
//
molecule: O=C(O)CNC(=O)c1ncc2cc(Oc3ccccc3)sc2c1O
EPO Fold Increase: 14.44
//
molecule: O=C(O)CNC(=O)c1ncc2cc(Oc3ccccc3)ccc2c1O
EPO Fold Increase: 11.9
//
molecule: O=C(O)CNC(=O)c1ncc2cc(Oc3ccc4c(c3)OCO4)ccc2c1O
EPO Fold Increase: 7.93
//
molecule: O=C(O)CNC(=O)c1ncc2cc(Oc3ccc4c(c3)CCO4)ccc2c1O
EPO Fold Increase: 13.76

---

Test system: erythropoietin
Test: Plasma EPO in mice after intravenous injection
Type: in vivo, Swiss Webster mice
Conditions: mouse plasma, 20 mg/kg i.v., four hours after injection; mouse EPO ELISA kit (**)
metric name: EPO (pg/mL)

compound: COc1ccc(Oc2ccc3c(O)c(C(=O)NCC(=O)O)ncc3c2)cc1
measured on: erythropoietin
metric name: EPO
value: 2283
--
compound: Cc1nc2ccc(Oc3ccc4c(O)c(C(=O)NCC(=O)O)ncc4c3)cc2o1
measured on: erythropoietin
metric name: EPO
value: 63.2
--
compound: Cc1nc(C(=O)NCC(=O)O)c(O)c2cc(-c3ccc(F)cc3)sc12
measured on: erythropoietin
metric name: EPO
value: 62.3
--
compound: COc1cccc(Oc2cccc3c(O)c(C(=O)NCC(=O)O)nc(C#N)c23)c1
measured on: erythropoietin
metric name: EPO
value: 3595
--
compound: O=C(O)CNC(=O)c1ncc2c(-c3ccc(F)cc3)c(-c3ccc(F)cc3)sc2c1O
measured on: erythropoietin
metric name: EPO
value: 271
--
compound: O=C(O)CNC(=O)c1nc(-c2ccoc2)c2ccsc2c1O
measured on: erythropoietin
metric name: EPO
value: 221
--
compound: N#Cc1nc(C(=O)NCC(=O)O)c(O)c2cccc(Oc3ccccc3)c12
measured on: erythropoietin
metric name: EPO
value: 725.4
--
compound: N#Cc1nc(C(=O)NCC(=O)O)c(O)c2c(Oc3ccccc3)cccc12
measured on: erythropoietin
metric name: EPO
value: 28206
--
compound: N#Cc1nc(C(=O)NCC(=O)O)c(O)c2c(Oc3ccc(F)cc3)cccc12
measured on: erythropoietin
metric name: EPO
value: 49305

---

System: vascular endothelial growth factor (VEGF)
Test: VEGF expression in Kelly neuroblastoma cells
Assay type: cell-based
So basically: VEGF Fold Increase at 5 or higher? That is TRUE. Lower than 5? That is FALSE.

compound: COc1ccc(Oc2ccc3c(O)c(C(=O)NCC(=O)O)ncc3c2)cc1
label: TRUE
//
compound: O=C(O)CNC(=O)c1ncc2cc(Oc3ccc(F)cc3)ccc2c1O
label: TRUE
//
compound: O=C(O)CNC(=O)c1nc2cc(Cl)ccc2c(I)c1O
label: TRUE
//
compound: O=C(O)CNC(=O)c1nc(-c2ccoc2)c2ccsc2c1O
label: FALSE
//
compound: N#Cc1nc(C(=O)NCC(=O)O)c(O)c2c(Oc3ccc(F)cc3)cccc12
label: TRUE
//
compound: O=C(O)CNC(=O)c1nc(Br)c2ccsc2c1O
label: FALSE
//
compound: CCc1c(O)c(C(=O)NCC(=O)O)nc2cc(Cl)ccc12
label: TRUE
//
compound: O=C(O)CNC(=O)c1nc(Br)c2cc(Br)sc2c1O
label: FALSE
//
compound: Cc1cccc(C)c1Oc1ccc2c(C#N)nc(C(=O)NCC(=O)O)c(O)c2c1
label: FALSE

---

Measured VEGF, listed per entry.
Tested on: VEGF
Assay: Plasma VEGF in mice after oral gavage
Assay type: in vivo, Swiss Webster mice
Settings: mouse plasma, oral gavage 6-60 mg/kg, six hours
metric name: VEGF (pg/mL)

compound: CC(NC(=O)c1ncc2cc(Oc3ccccc3)ccc2c1O)C(=O)O (stereo not drawn)
value: 62.7

compound: CC(NC(=O)c1ncc2cc(Sc3ccccc3)ccc2c1O)C(=O)O (stereo not drawn)
value: 52.7

compound: O=C(O)CNC(=O)c1ncc2cc(Oc3ccc4c(c3)OCO4)ccc2c1O
value: 46

---

Tested on: vascular endothelial growth factor (VEGF)
Assay: VEGF expression in Kelly neuroblastoma cells
Format: cell-based
Class (by VEGF Fold Increase) -- range 1 (below 4), range 2 (4 to below 5), range 3 (5 or more)

compound: O=C(O)CNC(=O)c1nc2ccc(Oc3ccccc3)cc2cc1O [Compound C]
label: range 3
--
compound: C#Cc1nc(C(=O)NCC(=O)O)c(O)c2ccsc12 [Compound M]
label: range 1
--
compound: Cc1nc2ccc(Oc3ccc4c(O)c(C(=O)NCC(=O)O)ncc4c3)cc2o1 [Compound N]
label: range 2
--
compound: N#Cc1nc(C(=O)NCC(=O)O)c(O)c2sccc12 [Compound AH]
label: range 2
--
compound: O=C(O)CNC(=O)c1nc(Sc2ccc(Cl)cc2)c2ccccc2c1O [Compound U]
label: range 3
--
compound: N#Cc1nc(C(=O)NCC(=O)O)c(O)c2cc(Oc3ccc4c(c3)OCO4)ccc12 [Compound AN]
label: range 3
--
compound: O=C(O)CNC(=O)c1nc2cc(-c3ccc(Cl)cc3)sc2cc1O [Compound Q]
label: range 2
--
compound: O=C(O)CNC(=O)c1ncc2cc(Oc3ccccc3)sc2c1O [Compound AG]
label: range 3
--
compound: CC(NC(=O)c1ncc2cc(Oc3ccccc3)ccc2c1O)C(=O)O (stereo not drawn) [Compound I]
label: range 3
--
compound: N#Cc1nc(C(=O)NCC(=O)O)c(O)c2ccc(Cc3ccccc3)cc12 [Compound AR]
label: range 3
--
compound: N#Cc1nc(C(=O)NCC(=O)O)c(O)c2ccc(Cl)cc12 [Compound S]
label: range 1
--
compound: COc1cccc(Oc2cccc3c(O)c(C(=O)NCC(=O)O)nc(C#N)c23)c1 [Compound AP]
label: range 1
--
compound: N#Cc1nc(C(=O)NCC(=O)O)c(O)c2cc(Oc3ccc4c(c3)CCO4)ccc12 [Compound AO]
label: range 2
--
compound: O=C(O)CNC(=O)c1ncc2c(-c3ccc(F)cc3)c(-c3ccc(F)cc3)sc2c1O [Compound AJ]
label: range 1

---

System: VEGF
Assay: Plasma VEGF in mice after intravenous injection
Format: in vivo, Swiss Webster mice
Settings: mouse plasma, 20 mg/kg i.v., four hours after injection
Measured VEGF, listed per entry.
metric name: VEGF (pg/mL)

compound: O=C(O)CNC(=O)c1ncc2c(-c3ccc(F)cc3)c(-c3ccc(F)cc3)sc2c1O
measured on: VEGF
metric name: VEGF
unit spec: pg/mL
value: 29
--
compound: O=C(O)CNC(=O)c1ncc2cc(Oc3ccc4c(c3)OCO4)ccc2c1O
measured on: VEGF
metric name: VEGF
unit spec: pg/mL
value: 64
--
compound: COc1ccc(Oc2ccc3c(O)c(C(=O)NCC(=O)O)ncc3c2)cc1
measured on: VEGF
metric name: VEGF
unit spec: pg/mL
value: 64
--
compound: Cc1cccc(C)c1Oc1ccc2c(C#N)nc(C(=O)NCC(=O)O)c(O)c2c1
measured on: VEGF
metric name: VEGF
unit spec: pg/mL
value: 130
--
compound: Cc1nc2ccc(Oc3ccc4c(O)c(C(=O)NCC(=O)O)ncc4c3)cc2o1
measured on: VEGF
metric name: VEGF
unit spec: pg/mL
value: 66
--
compound: O=C(O)CNC(=O)c1nc2cc(Cl)ccc2c(I)c1O
measured on: VEGF
metric name: VEGF
unit spec: pg/mL
value: 31
--
compound: N#Cc1nc(C(=O)NCC(=O)O)c(O)c2cc(Oc3ccc4c(c3)CCO4)ccc12
measured on: VEGF
metric name: VEGF
unit spec: pg/mL
value: 38
--
compound: N#Cc1nc(C(=O)NCC(=O)O)c(O)c2ccc(Cl)cc12
measured on: VEGF
metric name: VEGF
unit spec: pg/mL
value: 15
--
compound: O=Cc1nc(C(=O)NCC(=O)O)c(O)c2cc(Oc3ccccc3)ccc12
measured on: VEGF
metric name: VEGF
unit spec: pg/mL
value: 47
--
compound: C#Cc1nc(C(=O)NCC(=O)O)c(O)c2ccsc12
measured on: VEGF
metric name: VEGF
unit spec: pg/mL
value: 38
--
compound: O=C(O)CNC(=O)c1nc(-c2ccoc2)c2ccsc2c1O
measured on: VEGF
metric name: VEGF
unit spec: pg/mL
value: 20
--
compound: N#Cc1nc(C(=O)NCC(=O)O)c(O)c2sccc12
measured on: VEGF
metric name: VEGF
unit spec: pg/mL
value: 44
--
compound: N#Cc1nc(C(=O)NCC(=O)O)c(O)c2c(Oc3ccccc3)cccc12
measured on: VEGF
metric name: VEGF
unit spec: pg/mL
value: 24
--
compound: N#Cc1nc(C(=O)NCC(=O)O)c(O)c2ccc(Oc3ccc(F)cc3)cc12
measured on: VEGF
metric name: VEGF
unit spec: pg/mL
value: 54
--
compound: Cc1nc2ccc(Oc3ccc4c(O)c(C(=O)NCC(=O)O)nc(C)c4c3)cc2o1
measured on: VEGF
metric name: VEGF
unit spec: pg/mL
value: 82
--
compound: O=C(O)CNC(=O)c1nc(Br)c2ccsc2c1O
measured on: VEGF
metric name: VEGF
unit spec: pg/mL
value: 29
--
compound: O=C(O)CNC(=O)c1nc2cc(-c3ccc(Cl)cc3)sc2cc1O
measured on: VEGF
metric name: VEGF
unit spec: pg/mL
value: 50
--
compound: O=C(O)CNC(=O)c1ncc2cc(Sc3ccccc3)ccc2c1O
measured on: VEGF
metric name: VEGF
unit spec: pg/mL
value: 66.5
--
compound: O=C(O)CNC(=O)c1ncc2cc(Oc3ccccc3)ccc2c1O
measured on: VEGF
metric name: VEGF
unit spec: pg/mL
value: 70
